- test_name: Metal complexation constants, Fe system (spectrophotometric titration; pM by Hyss)
- Format: binding
- setup_conditions: total iron 10^−6 M, ligand 10^−5 M, pH 7.4; calculated from experimental pKa and complexation constants
Counter-ions that a name gives are not always drawn.
measured_metric: pFe^3+

| compound | measured_number |
| --- | --- |
| Cc1cc(=O)c(O)c(C(=O)NC2CCCCC2)n1C [Apo6621] | 20.9 |
| Cc1c(O)c(=O)ccn1C [deferiprone, 1,2-dimethyl-3-hydroxy-4-pyridinone, reference compound] | 19.7 |
| Cc1cc(=O)c(O)c(C(=O)NC2CC2)n1C1CC1 [Apo6618] | 20.5 |
| CNC(=O)c1c(O)c(=O)cc(C)n1C1CC1 [Apo6619] | 20.7 |
| CNC(=O)c1c(O)c(=O)cc(C)n1C [CP502, hydrochloride, reference compound] | 20.9 |
| Cc1cc(=O)c(O)c(C(=O)NC2CC2)n1C [Apo6617] | 20.8 |
| Cc1cc(=O)c(O)c(C(=O)NC2CCC2)n1C [Apo6622] | 20.8 |
| Cc1cc(=O)c(O)c(C(=O)NC2CCCC2)n1C [Apo6620] | 20.3 |

----------
- test_name: Distribution coefficient determination (D7.4), 1-octanol / MOPS buffer
- Assay type: physicochemical
- setup_conditions: 1-octanol / MOPS buffer pH 7.4
Where a name gives a salt, the structure may show the parent alone.
measured_metric: D7.4

| compound | measured_metric | measured_number |
| --- | --- | --- |
| CNC(=O)c1c(O)c(=O)cc(C)n1C [CP502, hydrochloride, reference compound] | D7.4 | 0.04 |
| Cc1cc(=O)c(O)c(C(=O)NC2CC2)n1C [Apo6617] | D7.4 | 0.099 |
| Cc1cc(=O)c(O)c(C(=O)NC2CCCCC2)n1C [Apo6621] | D7.4 | 2.2 |
| Cc1cc(=O)c(O)c(C(=O)NC2CC2)n1C1CC1 [Apo6618] | D7.4 | 0.331 |
| CNC(=O)c1c(O)c(=O)cc(C)n1C1CC1 [Apo6619] | D7.4 | 0.109 |
| Cc1cc(=O)c(O)c(C(=O)NC2CCC2)n1C [Apo6622] | D7.4 | 0.357 |
| Cc1cc(=O)c(O)c(C(=O)NC2CCCC2)n1C [Apo6620] | D7.4 | 0.78 |

----------
Below, each entry is listed with its recorded pKas (lower value, LH2+).
- test_name: pKa determination by potentiometric or spectrophotometric titration
- Assay type: physicochemical
- setup_conditions: titration in 0.1 M NaCl at 22° C.
Counter-ions that a name gives are not always drawn.
measured_metric: pKas (lower value, LH2+)

| compound | result |
| --- | --- |
| Cc1cc(=O)c(O)c(C(=O)NC2CCCCC2)n1C | 2.5 |
| Cc1cc(=O)c(O)c(C(=O)NC2CCC2)n1C | 2.8 |
| Cc1cc(=O)c(O)c(C(=O)NC2CCCC2)n1C | 2.7 |
| CNC(=O)c1c(O)c(=O)cc(C)n1C [CP502, hydrochloride, reference compound] | 2.7 |
| Cc1c(O)c(=O)ccn1C [deferiprone, 1,2-dimethyl-3-hydroxy-4-pyridinone, reference compound] | 3.56 |
| Cc1cc(=O)c(O)c(C(=O)NC2CC2)n1C1CC1 | 2.5 |

// data source = patent US8097624B2
